From: patent US8927500B2

test-system: UniProt:O15151
Sequence (O15151 1-125): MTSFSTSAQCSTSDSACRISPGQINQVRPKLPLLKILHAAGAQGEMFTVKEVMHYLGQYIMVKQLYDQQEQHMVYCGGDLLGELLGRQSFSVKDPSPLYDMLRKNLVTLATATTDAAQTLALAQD
assay-text: Competitive fluorescence polarization assay for MDMX
Format: binding
experimental-setup: competitive FP assay, read-out: IC50 (MDMX)
Where a SMILES comes first, the peptide text is derived from it. Bridges are numbered along the chain shown (N, C = ends). [ ]: non-standard residue; d: D form. R8 = C=CCCCCCC[C@@](C)(N)C(=O)O; S5 = C=CCCC[C@](C)(N)C(=O)O; Nle = CCCC[C@H](N)C(=O)O
Quick reference for IC50 among some compounds

{"compound": "CCCC[C@H](NC(=O)[C@H](Cc1c[nH]c2ccccc12)NC(=O)[C@H](C)NC(=O)[C@]1(C)CCCC=CCCCCCC[C@@](C)(NC(=O)[C@H](Cc2ccccc2)NC(=O)[C@@H](NC(=O)[C@H](CCC(=O)O)NC(C)=O)[C@@H](C)O)C(=O)N[C@@H](C)C(=O)N[C@@H](Cc2ccc(O)cc2)C(=O)N[C@@H](Cc2c[nH]c3ccccc23)C(=O)N[C@@H](C)C(=O)N[C@@H](CCC(N)=O)C(=O)N[C@@H](CC(C)C)C(=O)N1)C(=O)N[C@H](C)C(N)=O [compound 276] (Ac-ETF[R8]AYWAQL[S5]AW[Nle][dA]-NH2; staple 4-11)", "IC50": "10 to 100 nM"}

Inquiry: Assign IC50 to the following record: CCCC[C@H](NC(=O)[C@H](C)NC(=O)[C@H](C)NC(=O)[C@]1(C)CCCC=CCCCCCC[C@@](C)(NC(=O)[C@H](Cc2ccccc2)NC(=O)[C@@H](NC(=O)[C@H](CC(C)C)NC(C)=O)[C@@H](C)O)C(=O)N[C@@H](C)C(=O)N[C@@H](Cc2ccc(O)cc2)C(=O)N[C@@H](Cc2c[nH]c3ccccc23)C(=O)NC(C)(C)C(=O)N[C@@H](CCC(N)=O)C(=O)N[C@@H](CC(C)C)C(=O)N1)C(=O)N[C@@H](C)C(N)=O (single isomer, unassigned) [compound 390]
Reply text: 10 to 100 nM

----------
test-system: MDM2 (Homo sapiens, UniProt Q00987)
Sequence (Q00987 1-125): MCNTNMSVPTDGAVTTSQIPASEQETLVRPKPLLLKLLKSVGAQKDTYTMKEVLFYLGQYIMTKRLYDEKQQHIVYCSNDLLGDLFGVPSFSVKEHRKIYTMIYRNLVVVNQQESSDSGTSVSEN
assay-text: Competitive fluorescence polarization assay for MDM2
Type: binding
experimental-setup: competitive FP assay, MDM2; read-out: IC50 (MDM2)
pIC50: −log10 of the molar value. Where a SMILES comes first, the peptide text is derived from it. Bridges are numbered along the chain shown (N, C = ends). [ ]: non-standard residue; d: D form. Phe(3,4-F2) = N[C@@H](Cc1ccc(F)c(F)c1)C(=O)O; R8 = C=CCCCCCC[C@@](C)(N)C(=O)O; Cba = N[C@@H](CC1CCC1)C(=O)O; S5 = C=CCCC[C@](C)(N)C(=O)O; Nle = CCCC[C@H](N)C(=O)O
measure: pIC50

Previously resolved entries follow.
{"compound": "CC(=O)N[C@@H](CC(C)C)C(=O)N[C@H](C(=O)N[C@@H](Cc1ccc(F)c(F)c1)C(=O)N[C@]1(C)CCCCCCC=CCCC[C@@](C)(C(=O)N[C@@H](CO)C(=O)N[C@@H](C)C(=O)N[C@@H](Cc2ccccc2)C(N)=O)NC(=O)[C@H](CC2CCC2)NC(=O)[C@H](CCC(N)=O)NC(=O)[C@H](C)NC(=O)[C@H](Cc2c[nH]c3ccccc23)NC(=O)[C@H](Cc2ccc(O)cc2)NC(=O)[C@H](C)NC1=O)[C@@H](C)O [compound 259] (Ac-LT[Phe(3,4-F2)][R8]AYWAQ[Cba][S5]SAF-NH2; staple 4-11)", "measure": "pIC50", "value-observed": "7.00 to 8.00"}
{"compound": "CC[C@H](C)[C@H](NC(=O)[C@H](C)NC(=O)[C@H](C)NC(=O)[C@]1(C)CCCC=CCCCCCC[C@@](C)(NC(=O)[C@H](Cc2ccccc2)NC(=O)[C@@H](NC(=O)[C@H](CC(C)C)NC(C)=O)[C@@H](C)O)C(=O)N[C@@H](CCC(=O)O)C(=O)N[C@@H](Cc2ccc(O)cc2)C(=O)N[C@@H](Cc2c[nH]c3ccccc23)C(=O)N[C@@H](C)C(=O)N[C@@H](CCC(N)=O)C(=O)N[C@@H](CC(C)C)C(=O)N1)C(=O)N[C@H](C)C(N)=O (single isomer, unassigned)", "measure": "pIC50", "value-observed": "> 8.00"}
{"compound": "CCCC[C@H](NC(=O)[C@H](Cc1c[nH]c2ccccc12)NC(=O)[C@H](C)NC(=O)[C@]1(C)CCCC=CCCCCCC[C@@](C)(NC(=O)[C@H](Cc2ccccc2)NC(=O)[C@@H](NC(=O)[C@H](CC(C)C)NC(C)=O)[C@@H](C)O)C(=O)N[C@@H](CCC(=O)O)C(=O)N[C@@H](Cc2ccc(O)cc2)C(=O)N[C@@H](Cc2c[nH]c3ccccc23)C(=O)N[C@@H](C)C(=O)N[C@@H](CCC(N)=O)C(=O)N[C@@H](CC(C)C)C(=O)N1)C(=O)N[C@H](C)C(N)=O [compound 277] (Ac-LTF[R8]EYWAQL[S5]AW[Nle][dA]-NH2; staple 4-11)", "measure": "pIC50", "value-observed": "7.00 to 8.00"}

Pending compound:
Inquiry: Report measured pIC50; entry is CC(=O)N[C@@H](CC(C)C)C(=O)N[C@H](C(=O)N[C@@H](Cc1ccccc1)C(=O)N[C@]1(C)CCCCCCC=CCCC[C@@](C)(C(=O)N[C@@H](CO)C(=O)N[C@@H](C)C(=O)N[C@@H](Cc2ccccc2)C(N)=O)NC(=O)[C@H](CC2CCC2)NC(=O)[C@H](CCC(N)=O)NC(=O)[C@H](C)NC(=O)[C@H](Cc2c[nH]c3ccccc23)NC(=O)[C@H](Cc2ccc(O)cc2)NC(=O)[C@H](C)NC1=O)[C@@H](C)O [compound 258] (Ac-LTF[R8]AYWAQ[Cba][S5]SAF-NH2; staple 4-11)
Reply text: 7.00 to 8.00
